# SUBJECT OF TEST: T1, 006 PSMA Fab (biotinylated (site not stated))
# T1 construct: Biotinylated PSMA Fab captured on neutravidin coated plates in the panning ELISA; also called Anti-PSMA Fab
# ASSAY EXPLANATION: clonal phage ELISA on captured PSMA Fab, wells pre-incubated with PSMA antigen as competitor
Where no end group is shown, it is not given here.
Please go through the items and note down their phage binding ELISA signal in presence of PSMA antigen.

Study these solved cases before continuing.
BINDER	VALUE
PWKWCTPVWMCQGV (Clone of the Peptide-180 optimisation library, tested as clonal phage supernatant (peptide fused to pIII of the bacteriophage)) [Phage-2761]	0.0937
VEKWCTPAWMCSTS (Clone of the Peptide-180 optimisation library, tested as clonal phage supernatant (peptide fused to pIII of the bacteriophage)) [Phage-2766]	0.065

Respectfully, I request phage binding ELISA signal in presence of PSMA antigen for each entry included below.
1. GEIRCSPAWMCDGF (Clone of the Peptide-180 optimisation library, tested as clonal phage supernatant (peptide fused to pIII of the bacteriophage)) [Phage-2757]
2. QIKWCIPMWMCEGE (Clone of the Peptide-180 optimisation library, tested as clonal phage supernatant (peptide fused to pIII of the bacteriophage)) [Phage-2770]
3. AENWCTPRWMCEGI (Clone of the Peptide-180 optimisation library, tested as clonal phage supernatant (peptide fused to pIII of the bacteriophage)) [Phage-2768]
4. SYKWCTPDWMCVAV (Clone of the Peptide-180 optimisation library, tested as clonal phage supernatant (peptide fused to pIII of the bacteriophage)) [Phage-2769]

output:
0.104
0.0554
0.201
0.0709

input: For the binder shown here, HAIWCIPEWMCAFN (cysteine pairing not given here; also: fused to pIII, displayed on bacteriophage, Clone of the Peptide-180 optimisation library, tested as clonal phage supernatant (peptide fused to pIII of the bacteriophage)) [Phage-2765] , give the reported phage binding ELISA signal in presence of PSMA antigen.
output: 0.124
